# assay_explanation: gradient 5% acetonitrile 3 min, to 50% in 2 min, to 85% in 15 min, held 3 min, 100 µL/min
# assay_setup: column: Zorbax Extend-C18 2.1 x 50 mm; eluents: water / acetonitrile, 0.1% formic acid
result_type: RP-LC retention time (s)
Report the value in s with no unit label.

compound	result_type	measurement_unit	assay_result
CN(C)CCNC(=O)c1ccc(CS(=O)Cc2ccc(Cl)cc2)o1 (stereo not given)	RP-LC retention time	s	604
COc1cc(NC(=O)N2CCN(c3cc(C)nc(N4CCOCC4)n3)CC2)cc(OC)c1	RP-LC retention time	s	627
O=C(NC1CC1)c1ccc(OCC2CCCN(C(=O)c3ccc(F)cc3F)C2)cc1 (stereo not given)	RP-LC retention time	s	848
CCOc1ccccc1NC(=O)N1CCC2(C1)C(=O)N(C)c1ccccc12 (stereo not given)	RP-LC retention time	s	902
O=C(Nc1cccc(Cl)c1)N1CCc2nc(-c3ccc(Cl)cc3)ncc2C1	RP-LC retention time	s	1150
Cc1ccc(N2CC(C(=O)Nc3cc(-c4nc(C)cs4)sc3C)CC2=O)cc1 (stereo not given)	RP-LC retention time	s	848
CCN1c2ccccc2C(=O)NC12CCN(C(=O)Nc1ccc3c(c1)OCCO3)CC2	RP-LC retention time	s	737
CCN1CCCn2cc(S(=O)(=O)N3CCOCC3)cc2C1=O	RP-LC retention time	s	614
COCCN1C(=O)Cc2ccccc2C1C(=O)NCc1cccc(Cl)c1 (stereo not given)	RP-LC retention time	s	766

Next up:
(Q) Could you share which RP-LC retention time value was measured for Cc1ccc(-n2cc(C(=O)OCC(=O)OC(C)(C)C)c3ccccc3c2=O)cc1 ?
(A) 1210

###

# assay_explanation: gradient 5% acetonitrile 3 min, to 50% in 2 min, to 85% in 15 min, held 3 min, 100 µL/min
# assay_setup: column: Zorbax Extend-C18 2.1 x 50 mm; eluents: water / acetonitrile, 0.1% formic acid
result_type: RP-LC retention time

molecule	RP-LC retention time
CCc1c(C(=O)O)nnn1Cc1ccccc1C	728 s
O=C(Nc1ccc(-c2nnc3n2CCCC3)cc1)c1cc(C2CC2)[nH]n1	625 s
COc1ccc(Cl)c2c(=O)c3c([nH]c12)CCN(CC(=O)NCc1ccccc1F)C3	625 s

Switching to the query record.
(Q) What RP-LC retention time value was documented for this molecule, O=C1OCC/C1=C\OCCCO/C=C1\CCOC1=O ?
(A) 716 s

###

# assay_explanation: gradient 5% acetonitrile 3 min, to 50% in 2 min, to 85% in 15 min, held 3 min, 100 µL/min
# assay_setup: column: Zorbax Extend-C18 2.1 x 50 mm; eluents: water / acetonitrile, 0.1% formic acid
Please use the following RP-LC retention time ranges when assigning a class: low bracket (below 800 s), middle bracket (800 s to below 900 s), high bracket (900 s or more)

(Q) For the record Cc1ccc(Cl)cc1NC(=O)NC1CCN(c2ccc(F)cc2)C1=O (centres undefined) , report the class its RP-LC retention time corresponds to.
(A) middle bracket

(Q) Now give it for CCOc1ccc(-c2noc(Cn3nc(-c4ccccc4)ccc3=O)n2)cc1 too.
(A) high bracket

###

Listing: RP-LC retention time of selected compounds
# assay_explanation: gradient 5% acetonitrile 3 min, to 50% in 2 min, to 85% in 15 min, held 3 min, 100 µL/min
# assay_setup: column: Zorbax Extend-C18 2.1 x 50 mm; eluents: water / acetonitrile, 0.1% formic acid
Respond with the bare value in s.

Worked cases, answers included:
compound	RP-LC retention time / s
Cc1nnc(NC(=O)CCc2c(C)[nH]c(=O)[nH]c2=O)s1	547
CC(=O)c1ccc(NC(=O)c2cc(C(F)(F)F)n(C)n2)cc1	871
CCc1ccc(-n2ncc3c(=O)n(Cc4nc(-c5cc(OC)c(OC)c(OC)c5)no4)cnc32)cc1	1080
c1ccc(CN2CCN(Cc3cnoc3-c3ccccc3)CC2)cc1	689

(Q) Record request: RP-LC retention time value, item CCOc1ccc(CC(=O)N2CCCC2c2nc(-c3cccc(C)c3)no2)cc1 (centres undefined)
(A) 1120

(Q) # iterate: Cc1oc(-c2ccc(Cl)cc2)nc1CN1CCCC(C(=O)N2CCN(C(=O)c3ccco3)CC2)C1 (centres undefined)
(A) 679

(Q) Input COCc1ncc(C)n1CC1CN(C(=O)c2ocnc2C)C1
(A) 511

(Q) Now try CCNC(=O)NC1CCN(c2nc3cccnc3n(Cc3ccc(C)cc3)c2=O)CC1 .
(A) 1010

(Q) Also, O=C(Nc1ccccc1F)C1CCN(S(=O)(=O)c2cc(C(=O)N3CCCC3)cs2)CC1 please.
(A) 790

###

# assay_explanation: gradient 5% acetonitrile 3 min, to 50% in 2 min, to 85% in 15 min, held 3 min, 100 µL/min
# assay_setup: column: Zorbax Extend-C18 2.1 x 50 mm; eluents: water / acetonitrile, 0.1% formic acid
Measured RP-LC retention time of individual entries
Your answer should be a plain number; it is taken to be in s.

Some solved entries appear below for comparison.
compound	result_type	assay_result
Cc1ccc(-c2noc(-c3ccccc3S(=O)(=O)N3CCC(C)CC3)n2)cc1	RP-LC retention time	1280
Cc1sc(-c2nc(C(C)C)cs2)cc1S(=O)(=O)N1CCN(c2ccccc2)CC1	RP-LC retention time	1420
Cc1cc(C)n(-c2nc(C)c(C(=O)Nc3cccc(C(F)(F)F)c3)s2)n1	RP-LC retention time	1260
Cc1ccc(C)c(N2CCN(C(=O)c3cn4ccccc4n3)CC2)c1	RP-LC retention time	771
CCn1c(=O)c2ccccc2n(Cc2nc(-c3ccc(C(F)(F)F)cc3)no2)c1=O	RP-LC retention time	1120

(Q) Fill in: RP-LC retention time of Cc1ccc(-c2nc(-c3ccc4nncn4c3)no2)cc1F is ___
(A) 764

(Q) # repeat for CCOC(=O)C1=C(CN2CCN(c3ccccn3)CC2)NC(=O)NC1c1cccs1 (centres undefined)
(A) 919

(Q) Thanks! And O=C(CSc1ccccc1)N1CCc2nc(-c3ccc(F)cc3)ncc2C1 ?
(A) 1000

(Q) Proceed to CC(C)Oc1ccc(C(=O)N[C@H](CNC(=O)CN(C)C)Cc2ccc(-c3cn4cccc([C@H](C)O)c4n3)cc2)cc1Cl
(A) 664

(Q) Continue with COc1ccc(Cn2ccc3nc(C)c(C(=O)NCCc4c[nH]c5ccccc45)cc3c2=O)cc1
(A) 807

(Q) Also, CC12CCC(C(=O)Nc3ccc(Cl)cn3)(OC1=O)C2(C)C (centres undefined) please.
(A) 890

(Q) Same thing, different compound: CCOCCCNCc1ccc(-c2ccc(Cl)cc2)o1
(A) 687

(Q) Now try COCCSc1nnc(NC(=O)C2CCN(C(=O)c3ccccc3F)CC2)s1 .
(A) 680

(Q) How about CC1CCc2onc(C(=O)N3CCN(Cc4ccc5c(c4)OCO5)CC3)c2C1 (centres undefined) ?
(A) 667

(Q) And Cc1cnc(C2CN(Cc3ccc(F)cc3F)C2)n1Cc1cccnc1 ?
(A) 544

(Q) Now consider Cc1ccc(Cn2c(C(=O)NCCc3ccccc3)cc3sccc32)cc1 .
(A) 1180

(Q) For Cn1cnc(S(=O)(=O)N2CC(N(Cc3ccccc3)C3CCOCC3)C2)c1 then?
(A) 600

(Q) Also COc1cc(F)ccc1-c1ccnc2nc(C3CCCCC3)nn12 ?
(A) 1000

(Q) Please do the same for COc1ccc(NS(=O)(=O)c2c(C)nn(-c3ccc(-c4ccc(C)cc4)nn3)c2C)cc1 as well.
(A) 1060

###

# assay_explanation: gradient 5% acetonitrile 3 min, to 50% in 2 min, to 85% in 15 min, held 3 min, 100 µL/min
# assay_setup: column: Zorbax Extend-C18 2.1 x 50 mm; eluents: water / acetonitrile, 0.1% formic acid
Rule: measured RP-LC retention time below 800 s gets 1; anything equal to or greater than 800 s gets 0.

molecule	assigned_label
COc1ccc(C)cc1NC(=O)C1CCN(S(C)(=O)=O)c2ccccc2O1 (centres undefined)	0
COCCN(CC(=O)N1CCc2sccc2C1COc1ccc(Cl)cc1)C(=O)COC (centres undefined)	0
Clc1ccc2nc(Nc3ncccn3)nc(-c3ccccc3)c2c1	1
COc1ccc(-c2nnc(COc3cccc(NC(=O)c4cncc(Br)c4)c3)o2)cc1	0
Cc1noc2ncnc(N3CCC(C(=O)NCCCN4CCCCC4C)CC3)c12 (centres undefined)	1
Cc1ccc(-n2cc(C(=O)O)nn2)cc1F	1
CCc1nc(-c2csc(S(=O)(=O)N3CCCC(C(=O)NC(C)C)C3)c2)no1 (centres undefined)	0
CCc1ccc(C(=O)N2CCc3[nH]nc(C(=O)N(C)C)c3C2)cc1	1

(Q) Given the entry Cc1ccc(N2C(=O)C3N=NN(Cc4nc(-c5ccccc5)no4)C3C2=O)cc1 (centres undefined) , would its reported RP-LC retention time be below 800 s?
(A) 0

(Q) Check COc1ccc2ncc(C#N)c(Nc3cc(OC)c(OC)c(OC)c3)c2c1 too.
(A) 1
